System: MRC-5 cells
Assay: CCK-8 cell viability assay, normal MRC-5 cells
Format: cell-based
Details: Homo sapiens, MRC5, 60 h, read-out: IC50 MRC-5
ENDPOINT_LABEL: IC50 (µM)

INSERT INTO results (compound, unit_string, data_value) VALUES
  ('COc1c(COc2cc(OCc3cccc(C#N)c3)c(CNCCO)cc2Cl)cccc1-c1ccccc1F [13h-3]', 'µM', 11.1),
  ('COc1c(COc2ccc(CN[C@H](CO)C(=O)O)c(OCc3cncc(C#N)c3)c2)cccc1-c1ccccc1F [13h-1]', 'µM', 9.31),
  ('Cc1c(COc2ccc(CNCCN)c(OCc3ccccc3)c2)cccc1-c1ccccc1F [12j-4]', 'µM', 10.3);
